Target: UniProt P04629
Experiment: Isolated TRK enzyme assay (HTRF KinEASE-TK), TRKA
Assay type: biochemical
Conditions: read-out: Trka enzyme (IC50)
# maps each entry to its IC50
result type: IC50 (nM)

{"line notation": "CC(C)n1cc(C(=O)c2cncc(NC(=O)Cc3n[nH]c4ccccc34)c2)c2cncnc21", "unit text": "nM", "obs value": 71.5}
{"line notation": "CC(C)n1cc(C(=O)c2c[nH]c(=O)c(NC(=O)Cc3ccc(Cl)cc3)c2)c2cncnc21", "unit text": "nM", "obs value": 31.3}
{"line notation": "CC(C)n1cc(C(=O)c2cncc(NC(=O)c3cn(C4CCC4)cn3)c2)c2cncnc21", "unit text": "nM", "obs value": 25.8}
{"line notation": "Cc1cccc(CC(=O)Nc2cncc(C(=O)c3cn(C)c4ncncc34)c2)c1", "unit text": "nM", "obs value": 702}
{"line notation": "CC(C)n1cc(C(=O)c2cncc(NC(=O)Cn3cc(-c4ccccn4)nn3)c2)c2cncnc21", "unit text": "nM", "obs value": 6270}
{"line notation": "C[C@H](CO)n1cc(C(=O)c2cncc(NC(=O)Cc3cccc(C(F)(F)F)c3)c2)c2cncnc21", "unit text": "nM", "obs value": 12.2}
{"line notation": "CC(CO)(CO)n1cc(C(=O)c2cncc(NC(=O)Cc3ccc(F)c(C(F)(F)F)c3)c2)c2cncnc21", "unit text": "nM", "obs value": 73.6}
{"line notation": "CC(C)n1cc(C(=O)c2cncc(NC(=O)Cc3ccc(F)cn3)c2)c2cnc(N)nc21", "unit text": "nM", "obs value": 38.4}
{"line notation": "Cn1cc(C(=O)c2cncc(NC(=O)Cc3cc(F)cc(F)c3)c2)c2cncnc21", "unit text": "nM", "obs value": 3100}
{"line notation": "Nc1ncc2c(C(=O)c3cncc(NC(=O)Cn4ccc(C(F)(F)F)n4)c3)cn(C34CC(C3)C4)c2n1", "unit text": "nM", "obs value": 0.825}
{"line notation": "CC(C)n1cc(C(=O)c2cncc(NC(=O)c3ccc(C#N)nc3)c2)c2cncnc21", "unit text": "nM", "obs value": 7280}
{"line notation": "CC(C)n1cc(C(=O)c2cncc(NC(=O)c3cc4ccccn4n3)c2)c2cncnc21", "unit text": "nM", "obs value": 201}
{"line notation": "Nc1ncc2c(C(=O)c3cncc(NC(=O)Cn4cc(C(F)(F)F)nn4)c3)cn(C34CC(C3)C4)c2n1", "unit text": "nM", "obs value": 3.21}
{"line notation": "CC(C)n1cc(C(=O)c2c[nH]c(=O)c(NC(=O)Cc3ccc(C#N)cc3)c2)c2cncnc21", "unit text": "nM", "obs value": 581}
{"line notation": "O=C(Cc1cccc(Cl)c1)Nc1cncc(C(=O)c2cn(C3COC3)c3ncncc23)c1", "unit text": "nM", "obs value": 462}
{"line notation": "COc1cncc(C(=O)Nc2cncc(C(=O)c3cn(C(C)C)c4ncncc34)c2)c1", "unit text": "nM", "obs value": 20}

====

Biological target: TRKA (Homo sapiens (Human), UniProt P04629)
Sequence (P04629 441-796): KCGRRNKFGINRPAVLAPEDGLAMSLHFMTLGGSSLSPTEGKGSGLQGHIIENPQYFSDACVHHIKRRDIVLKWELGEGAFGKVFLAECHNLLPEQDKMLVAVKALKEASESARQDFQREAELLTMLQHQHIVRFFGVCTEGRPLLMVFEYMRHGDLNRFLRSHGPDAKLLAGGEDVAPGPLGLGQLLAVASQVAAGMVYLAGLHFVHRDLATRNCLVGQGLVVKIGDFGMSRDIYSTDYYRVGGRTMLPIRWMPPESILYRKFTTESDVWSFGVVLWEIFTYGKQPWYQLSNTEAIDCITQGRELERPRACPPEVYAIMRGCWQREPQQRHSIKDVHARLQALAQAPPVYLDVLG
Test: Isolated TRK enzyme assay (HTRF KinEASE-TK), TRKA
Format: biochemical
Details: read-out: Trka enzyme (IC50)
IC50 overview
result type: IC50 (nM)

{"line notation": "O=C(Nc1cncc(C(=O)c2cn(C(CO)CO)c3ncncc23)c1)c1cccc(OC(F)(F)F)c1", "result type": "IC50", "obs value": 39}
{"line notation": "O=C(Cc1ccc(Cl)cn1)Nc1cncc(C(=O)c2cn(C(CO)CO)c3ncncc23)c1", "result type": "IC50", "obs value": 1010}
{"line notation": "CC(C)n1cc(C(=O)c2cncc(NC(=O)Cn3ccc(C4CC4)n3)c2)c2cnc(N)nc21", "result type": "IC50", "obs value": 3.92}
{"line notation": "Cc1[nH]c2ccc(Cl)cc2c1CC(=O)Nc1cncc(C(=O)c2cn(C(C)C)c3ncncc23)c1", "result type": "IC50", "obs value": 36.5}
{"line notation": "Cn1cc(C(=O)c2cncc(NC(=O)COc3ccccc3)c2)c2cncnc21", "result type": "IC50", "obs value": 2180}
{"line notation": "CC(C)n1cc(C(=O)c2cncc(NC(=O)Cc3cn(C)c4ccccc34)c2)c2cncnc21", "result type": "IC50", "obs value": 334}
{"line notation": "CC(C)n1cc(C(=O)c2cncc(NC(=O)c3noc4c3CCCC4)c2)c2cncnc21", "result type": "IC50", "obs value": 52}
{"line notation": "CC(C)n1cc(C(=O)c2cncc(NC(=O)Cc3cn(C4CC4)nc3C(F)(F)F)c2)c2cncnc21", "result type": "IC50", "obs value": 62.6}
{"line notation": "CC(C)n1cc(C(=O)c2cncc(NC(=O)c3nnc4n3CCCC4)c2)c2cncnc21", "result type": "IC50", "obs value": 963}
{"line notation": "CC(C)n1cc(C(=O)c2cncc(N(C)C(=O)Cc3ccc(Cl)cc3)c2)c2cncnc21", "result type": "IC50", "obs value": 299}
{"line notation": "Cc1ccnn1CC(=O)Nc1cncc(C(=O)c2cn(C(C)C)c3ncncc23)c1", "result type": "IC50", "obs value": 284}
{"line notation": "Cc1ccc2[nH]c(C)c(CC(=O)Nc3cncc(C(=O)c4cn(C(C)C)c5ncncc45)c3)c2c1", "result type": "IC50", "obs value": 71.5}
{"line notation": "CC(C)n1cc(C(=O)c2cncc(NC(=O)c3n[nH]c4ccc(F)cc34)c2)c2cncnc21", "result type": "IC50", "obs value": 12.6}
{"line notation": "Cn1cc(C(=O)c2cncc(NC(=O)Cc3cc(F)ccc3C(F)(F)F)c2)c2cncnc21", "result type": "IC50", "obs value": 3470}
{"line notation": "Cc1[nH]nc(-c2ccccc2)c1CC(=O)Nc1cncc(C(=O)c2cn(C(C)C)c3ncncc23)c1", "result type": "IC50", "obs value": 1840}
{"line notation": "O=C(Cc1cccc(C(F)(F)F)c1)Nc1cncc(C(=O)c2cn(C(CO)CO)c3ncncc23)c1", "result type": "IC50", "obs value": 38.6}

====

Molecular target: UniProt:P04629
Experiment: Isolated TRK enzyme assay (HTRF KinEASE-TK), TRKA
Type: biochemical
Settings: read-out: Trka enzyme (IC50)
pIC50: −log10 of the molar value.
Catalogue of compounds with associated pIC50
result type: pIC50

{"compound": "CC(C)(C)n1cc(C(=O)c2cncc(NC(=O)Cc3cccc(S(C)(=O)=O)c3)c2)c2cncnc21 [Example 200]", "result type": "pIC50", "obs value": 8.00}
{"compound": "Cn1cc(C(=O)c2cncc(NC(=O)Cc3ccc(NS(=O)(=O)C(F)(F)F)cc3)c2)c2cncnc21 [Example 331]", "result type": "pIC50", "obs value": 5.01}
{"compound": "Cn1cc(C(=O)c2cncc(NC(=O)Nc3cccc(C(F)(F)F)c3)c2)c2cncnc21 [Example 295]", "result type": "pIC50", "obs value": 7.50}
{"compound": "Cc1cc(C(F)(F)F)nn1CC(=O)Nc1cncc(C(=O)c2cn(C(C)C)c3ncncc23)c1 [Example 96]", "result type": "pIC50", "obs value": 8.26}
{"compound": "Cc1cc(C(F)(F)F)nn1CC(=O)Nc1cc(C(=O)c2cn(C(C)C)c3ncncc23)c[nH]c1=O [Example 587]", "result type": "pIC50", "obs value": 7.69}
{"compound": "COCC(C)(C)n1cc(C(=O)c2cncc(NC(=O)Cn3cc(C(F)(F)F)cn3)c2)c2cnc(N)nc21 [Example 551]", "result type": "pIC50", "obs value": 8.56}
{"compound": "CC(C)n1cc(C(=O)c2cncc(NC(=O)Cc3ccc4onc(N)c4c3)c2)c2cncnc21 [Example 83]", "result type": "pIC50", "obs value": 6.45}

====

Molecular target: TRKA (Homo sapiens (Human), UniProt P04629)
Assay: Isolated TRK enzyme assay (HTRF KinEASE-TK), TRKA
Type: biochemical
Conditions: read-out: Trka enzyme (IC50)
pIC50: −log10 of the molar value.
If the reported pIC50 equals or exceeds 7, assign True. If not, assign False.

{"line notation": "CC(C)(CO)n1cc(C(=O)c2cncc(NC(=O)Cc3cccc(S(C)(=O)=O)c3)c2)c2cnc(N)nc21", "category label": "True"}
{"line notation": "CC(C)n1cc(C(=O)c2cncc(NC(=O)Cn3ccc(C4CC4)n3)c2)c2cncnc21", "category label": "True"}
{"line notation": "CC(C)n1cc(C(=O)c2cncc(NC(=O)c3ncn4c3CCC4)c2)c2cncnc21", "category label": "False"}
{"line notation": "Cc1cnc(C(=O)Nc2cncc(C(=O)c3cn(C(C)C)c4ncncc34)c2)cn1", "category label": "False"}
{"line notation": "CC(C)n1cc(C(=O)c2cncc(NC(=O)Cc3cn4cccnc4n3)c2)c2cncnc21", "category label": "False"}
{"line notation": "Cc1ccn2cc(CC(=O)Nc3cncc(C(=O)c4cn(C(C)C)c5ncncc45)c3)nc2n1", "category label": "False"}

Provenance of the data: patent US8846698B2
